# assayComment: basal HepG2 mitochondrial membrane potential changes, profiling panel, cell-based, JC-1 fluorescence, 24 h, 100 nL compound (AID 1167); note: test concentration not given here
# conditionNotes: higher = more signal
Classify by measured z-score: True if it is equal to or exceeds -1, False if it is smaller.

molecule	assignedClass
[N-]=[N+]=NCc1ccccc1C[C@]1(C(N)=O)N=C(c2ccc(OCCCO)cc2)O[C@H]1c1ccccc1CN=[N+]=[N-]	True
CCCC=C(CCC)[C@@H](NC(=O)c1ccc(C(F)(F)F)cc1)c1ccccc1	False
COCCCNC(=O)[C@@H]1c2ccccc2C(=O)N(CC23CC4CC(CC(C4)C2)C3)[C@H]1c1ccc(CO)cc1	True
CO[C@H]1COC(=O)[C@H](Cc2ccccc2)NC(=O)CC=C[C@@H](C)[C@H](OC)COC(=O)CC=C[C@@H]1C	True
COCCOC(=O)N1C(=O)[C@@]2(c3cc(C#CC4=CCCCC4)ccc31)[C@H](C(=O)NC[C@H](O)c1ccccc1)[C@H]1C(=O)O[C@H](c3ccccc3)[C@H](c3ccccc3)N1[C@@H]2c1ccccc1OCCO	False
COc1ccc(-c2cc3c(c(-c4ccccc4)n2)[Si](C(C)C)(C(C)C)O[C@H]3c2ccccc2)cn1	False
C=C(C)[C@@H]1CC=C(C(O)C2C=CC3C(=O)NC(=O)C3N2Nc2ccccn2)CC1 (some centres not stated)	False
